assayExplanation: in vitro
particulars: human, CCD-1059Sk cells and MCF7 cells
Description: Selectivity index, ratio of IC50 for cytotoxicity against CCD-1059Sk cells to IC50 for antiproliferative activity against MCF7 cells
Listed here: items and their measured selectivity ratio.
// response body must contain only the number

Record excerpt, results attached:
- structureSmilesString: "COc1cc(/C=N/NC(=O)/C=C/c2ccc(O)c(OC)c2)cc(OC)c1"
  selectivity ratio: 6.81
- structureSmilesString: "COc1cc(/C=C/C(=O)N/N=C/c2ccc(O)c(OC)c2)ccc1O"
  selectivity ratio: 1.73
- structureSmilesString: "COc1ccc(/C=N/NC(=O)/C=C/c2ccc(O)c(OC)c2)cc1"
  selectivity ratio: 3.9

// moving on: another record for selectivity ratio
Ask: Param item = "COc1cc(/C=C/C(=O)CC(=O)/C=C/c2ccc(O)c(OC)c2)ccc1O" ; retrieve measured selectivity ratio.
Reply: 1.93

###

Test system: A-431
assayExplanation: Anticancer activity against human A-431 cells assessed as reduction of cell viability incubated for 48 hrs by MTT assay
Assay type: functional, cell-based
particulars: A-431, 48 h
Listed here: items and their measured IC50.
Report the figure in µM without appending any unit label.

- compound: "Oc1ccc(/C=C/c2cc(O)cc(O)c2)cc1 [RESVERATROL]"
  targetEntity: "A-431"
  recordedNumber: 49.4

// moving on: another record for IC50
Ask: Param item = "COc1cc(/C=C/c2ccc(SC)cc2)cc(OC)c1OC" ; retrieve measured IC50.
Reply: 19.3

###

assayExplanation: Cytotoxicity against human MCF-10A cells assessed as cell growth inhibition incubated for 24 hrs by MTT assay
Format: toxicity, cell-based
readoutType: IC50 at 24 h

- molecule: "Oc1ccc(/C=C/c2cc(O)cc(O)c2)cc1 [RESVERATROL]"
  result: "> 100 µM"

Ask: Param item = "Oc1ccc(-c2ccc3cc(O)ccc3c2)c(O)c1" ; retrieve measured IC50 at 24 h.
Reply: > 100 µM

###

Listed here: items and their measured pIC50.
Tested on: HT-29
assayExplanation: cells
particulars: Homo sapiens, HT-29, 48 h
Description: Anti cancer activity against human HT-29 cell assessed as cell growth inhibition incubated for 48 hrs by Brdu assay
Quick note: pIC50 means taking -log10 of the concentration in moles per liter.

- structureSmilesString: "COc1ccc(/C=C\\c2cc(OC)cc(OC)c2)cc1"
  pIC50: 6.94

// moving on: another record for pIC50
Ask: Param item = "Oc1ccc(/C=C/c2cc(O)cc(O)c2)cc1" ; retrieve measured pIC50.
Reply: 2.95

###

Tested on: MCF7
assayExplanation: Anticancer activity against human MCF7 cells assessed as reduction of cell viability incubated for 48 hrs by MTT assay
Format: functional, cell-based
particulars: MCF7, 48 h
Listed here: items and their measured IC50.
Report the figure in µM without appending any unit label.

- structureSmilesString: "Oc1ccc(/C=C/c2cc(O)cc(O)c2)cc1"
  IC50 [µM]: 24.6

Ask: # value lookup — system MCF7, readout IC50, item "COc1cc(/C=C/c2ccc(SC)cc2)cc(OC)c1OC"
Reply: 2.1

###

Test system: MCF7
assayExplanation: cells
particulars: Homo sapiens, MCF7, 48 h
Description: Anticancer activity against human MCF7 cells assessed as cell growth inhibition incubated for 48 hrs in presence of Curcumin by MTS assay
readoutType: IC50

Ask: Param item = Oc1ccc(/C=C/c2cc(O)cc(O)c2)cc1 [RESVERATROL] ; retrieve measured IC50.
Reply: 61.7 µM

###

Listed here: items and their measured log10 of IC50.
Tested on: HeLa
assayExplanation: Anticancer activity against human HeLa cells assessed as cell growth inhibition measured after 72 hrs by MTT assay
Type: functional, cell-based
particulars: Homo sapiens, HeLa, 72 h; read-out: IC50
Where a name gives a salt, the structure may show the parent alone.
Log scale reminder: IC50 in µM, then log10 taken.

Record excerpt, results attached:
- compound: "CC(=O)Oc1ccc(/C=C/c2cc(OC(C)=O)cc(OC(C)=O)c2)cc1"
  recordedNumber: 0.53
- compound: "O=S(=O)(Oc1ccc(/C=C/c2cc(O)cc(OS(=O)(=O)c3ccccc3)c2)cc1)c1ccccc1"
  recordedNumber: 0.81

Ask: Param item = "CC(C)C(=O)Oc1ccc(/C=C/c2cc(OC(=O)C(C)C)cc(OC(=O)C(C)C)c2)cc1" ; retrieve measured log10 of IC50.
Reply: 0.71

Ask: Param item = "CC(C)CC(=O)Oc1ccc(/C=C/c2cc(OC(=O)CC(C)C)cc(OC(=O)CC(C)C)c2)cc1" ; retrieve measured log10 of IC50.
Reply: 0.69

Ask: Param item = "Oc1ccc(/C=C/c2cc(O)cc(OCc3ccccc3)c2)cc1" ; retrieve measured log10 of IC50.
Reply: 0.15

Ask: Param item = "O=S(=O)(Oc1cc(O)cc(/C=C/c2ccc(O)cc2)c1)c1ccccc1" ; retrieve measured log10 of IC50.
Reply: 0.91

Ask: Param item = "Oc1cc(O)cc(/C=C/c2ccc(OCc3ccccc3)cc2)c1" ; retrieve measured log10 of IC50.
Reply: 0.92

Ask: Param item = COc1cccc2c1C(=O)c1c(O)c3c(c(O)c1C2=O)C[C@@](O)(C(=O)CO)C[C@@H]3O[C@H]1C[C@H](N)[C@H](O)[C@H](C)O1 [DOXORUBICIN HYDROCHLORIDE] ; retrieve measured log10 of IC50.
Reply: -0.32

###

Listed here: items and their measured pIC50.
System: HepG2
assayExplanation: Anticancer activity against human HepG2 cells assessed as cell growth inhibition incubated for 3 days by MTT assay
Type: functional, cell-based
particulars: HepG2, 72 h
Quick note: pIC50 means taking -log10 of the concentration in moles per liter.

- compound: "CCOc1cc(/C=C/c2ccc(O)c(O)c2)cc(OCC)c1"
  recordedNumber: 4.17

Ask: Param item = Oc1ccc(/C=C/c2cc(O)cc(O)c2)cc1 [RESVERATROL] ; retrieve measured pIC50.
Reply: 3.45

###

Listed here: items and their measured IC50.
targetEntity: Aromatase (Homo sapiens, UniProt P11511)
Sequence (P11511 whole entry): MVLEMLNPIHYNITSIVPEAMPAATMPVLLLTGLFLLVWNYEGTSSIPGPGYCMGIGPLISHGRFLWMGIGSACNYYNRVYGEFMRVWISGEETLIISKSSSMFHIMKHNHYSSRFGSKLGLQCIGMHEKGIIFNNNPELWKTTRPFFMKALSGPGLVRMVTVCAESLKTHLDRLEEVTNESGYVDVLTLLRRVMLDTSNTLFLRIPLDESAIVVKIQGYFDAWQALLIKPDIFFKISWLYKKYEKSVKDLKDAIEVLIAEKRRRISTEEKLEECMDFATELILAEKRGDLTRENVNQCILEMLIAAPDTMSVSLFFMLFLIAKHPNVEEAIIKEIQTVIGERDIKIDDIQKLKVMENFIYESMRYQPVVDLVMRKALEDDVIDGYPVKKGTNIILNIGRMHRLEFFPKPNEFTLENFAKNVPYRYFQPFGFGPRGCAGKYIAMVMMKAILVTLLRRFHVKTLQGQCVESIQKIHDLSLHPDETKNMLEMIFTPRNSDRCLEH
# number then unit; no other words

- structureSmilesString: "Oc1ccc(/C=C/c2cc(O)cc(OCc3ccccc3)c2)cc1"
  readoutType: "IC50"
  result: "2.7 µM"

// moving on: another record for IC50
Ask: Param item = "COc1ccc(/C=C/c2cc(OC)cc(OC)c2)cc1" ; retrieve measured IC50.
Reply: 13.6 µM

###

Tested on: HL-60
assayExplanation: Anticancer activity against human HL-60 cells assessed as cell growth inhibition incubated for 48 hrs by MTT assay
Format: functional, cell-based
particulars: HL-60, 48 h
readoutType: pIC50
Quick note: pIC50 means taking -log10 of the concentration in moles per liter.

- molecule: "COc1ccc(NC(=O)c2cc(OC)cc(OC)c2)cc1"
  targetEntity: "HL-60"
  pIC50: 4.32

// moving on: another record for pIC50
Ask: Param item = Oc1ccc(/C=C/c2cc(O)cc(O)c2)cc1 [RESVERATROL] ; retrieve measured pIC50.
Reply: 4.19

###

assayExplanation: Cytotoxicity activity against human CCD-1059Sk cells assessed as cell growth inhibition incubated for 48 hrs in presence of resveratrol by MTS assay
Type: toxicity, cell-based
readoutType: IC50 at 48 h (µM)
Report the figure in µM without appending any unit label.

Ask: Param item = COc1cc(/C=C/C(=O)CC(=O)/C=C/c2ccc(O)c(OC)c2)ccc1O [CURCUMIN] ; retrieve measured IC50 at 48 h.
Reply: 83.1

###

Test system: A549
assayExplanation: Anticancer activity against human A549 cells assessed as cell growth inhibition measured after 72 hrs by MTT assay
Format: functional, cell-based
particulars: Homo sapiens, A549, 72 h
Counter-ions that a name gives are not always drawn.
Listed here: items and their measured pIC50.
Quick note: pIC50 means taking -log10 of the concentration in moles per liter.

Record excerpt, results attached:
- molecule: "Oc1cc(O)cc(/C=C/c2ccc(OCc3ccccc3)cc2)c1"
  pIC50: 4.58
- molecule: "CC(C)CC(=O)Oc1ccc(/C=C/c2cc(OC(=O)CC(C)C)cc(OC(=O)CC(C)C)c2)cc1"
  pIC50: 5.31
- molecule: "Oc1ccc(/C=C/c2cc(O)cc(OCc3ccccc3)c2)cc1"
  pIC50: 4.93
- molecule: "COc1cccc2c1C(=O)c1c(O)c3c(c(O)c1C2=O)C[C@@](O)(C(=O)CO)C[C@@H]3O[C@H]1C[C@H](N)[C@H](O)[C@H](C)O1 [DOXORUBICIN HYDROCHLORIDE]"
  pIC50: 5.63
- molecule: "O=S(=O)(Oc1ccc(/C=C/c2cc(O)cc(OS(=O)(=O)c3ccccc3)c2)cc1)c1ccccc1"
  pIC50: 5.31
- molecule: "O=S(=O)(Oc1cc(O)cc(/C=C/c2ccc(O)cc2)c1)c1ccccc1"
  pIC50: 5.36

// moving on: another record for pIC50
Ask: # value lookup — system A549, readout pIC50, item "CC(C)C(=O)Oc1ccc(/C=C/c2cc(OC(=O)C(C)C)cc(OC(=O)C(C)C)c2)cc1"
Reply: 5.29
